Recorded measurements of collision cross section (N2), one per entry
- CONDITION_NOTES: [M+H]+; instrument: TW; calibrated with phosphatidylcholines (ESI+) and phosphatidylethanolamines (ESI-)
Give the value in Å² but do not write Å² after it.

For orientation, consider the following solved cases.
[
  {
    "MOLECULE": "CCCCCC/C=C/CCCCCCCC(=O)OCC(COP(=O)([O-])OCC(O)COC(=O)C(N)CCCC[NH3+])OC(=O)CCCCCCCCCCCCC (stereo unspecified) [LysPG(30:1)]",
    "UNIT_ABBREV": "Å²",
    "collision cross section (N2)": 287
  },
  {
    "MOLECULE": "CCCCCCCCCCCCCCCC(=O)OCC(COP(=O)([O-])OCC(O)COC(=O)C(N)CCCC[NH3+])OC(=O)CCCCCCCCCCCCCCC (stereo unspecified) [LysPG(16:0/16:0)]",
    "UNIT_ABBREV": "Å²",
    "collision cross section (N2)": 297
  },
  {
    "MOLECULE": "CCCCCC/C=C/CCCCCCCC(=O)OCC(COP(=O)([O-])OCC(O)COC(=O)C(N)CCCC[NH3+])OC(=O)CCCCCCCCCCCCCCC (stereo unspecified) [LysPG(32:1)]",
    "UNIT_ABBREV": "Å²",
    "collision cross section (N2)": 293.5
  },
  {
    "MOLECULE": "CCCCCCCCCCCCCCCC(=O)OC(COC(=O)CCCCCCCCCCCCCC)COP(=O)([O-])OCC(O)COC(=O)C(N)CCCC[NH3+] (stereo unspecified) [LysPG(31:0)]",
    "UNIT_ABBREV": "Å²",
    "collision cross section (N2)": 293.9
  }
]

What measured collision cross section (N2) goes with CCCCCCCCCCCCCCCCCCC(=O)OC(COC(=O)CCCCCCCCCCCCCC)COP(=O)([O-])OCC(O)COC(=O)C(N)CCCC[NH3+] (stereo unspecified) [LysPG(34:0)] ?
302.5

What measured collision cross section (N2) goes with CCCCCCCCCCCCCCC(=O)OCC(COP(=O)([O-])OCC(O)COC(=O)C(N)CCCC[NH3+])OC(=O)CCCCCCCCCCCCCC (stereo unspecified) [LysPG(30:0)] ?
290.4

* * *

- CONDITION_NOTES: [M+H]+; instrument: DT; single field, calibrated with ESI Low Concentration Tuning Mix (Agilent)
PROPERTY_MEASURED: collision cross section (N2) (Å²)
Give the value in Å² but do not write Å² after it.

For orientation, consider the following solved cases.
[
  {
    "COMPOUND": "C[Se]CCC(N)C(=O)O (stereo unspecified) [SELENOMETHIONINE]",
    "DATA_VALUE": 135.2
  },
  {
    "COMPOUND": "CC(C)=CCNc1ncnc2nc[nH]c12 [N6-(DELTA2-ISOPENTENYL)-ADENINE]",
    "DATA_VALUE": 145.5
  }
]

What measured collision cross section (N2) goes with CC[C@H](C)[C@H](N)C(=O)O [ISOLEUCINE] ?
133

What measured collision cross section (N2) goes with CC[C@H](NC(=O)CC[C@H]([NH3+])C(=O)[O-])C(=O)NCC(=O)[O-] [OPHTHALMATE] ?
164.5

What measured collision cross section (N2) goes with COC(=O)CCCN [METHYL 4-AMINOBUTYRATE] ?
124.6

What measured collision cross section (N2) goes with O=C(O)c1ccnc2ccccc12 [4-QUINOLINECARBOXYLATE] ?
133.4

What measured collision cross section (N2) goes with NC(CS(=O)O)C(=O)O (stereo unspecified) [3-SULFINOALANINE] ?
133.7
